logP values by entry
assay: logP determination by HPLC on a reversed-phase column (C 18), EEC Directive 79/831 Annex V.A8; format: physicochemical; details: method marked [b] in Table 1

The cases that follow already have their logP on record.
- Compound: "CCCC(=NOCC(C)CON=C(C)c1cccc(C)n1)c1ncccc1C (single isomer, unassigned) [compound 548]"
  Experimental endpoint: "logP"
  Reading: "3.85^[b] (isomer A)"
- Compound: "C=C(CON=C(C)c1cccc(C)n1)CON=C(CCC)c1ncccc1C (single isomer, unassigned)"
  Experimental endpoint: "logP"
  Reading: "4.46^[b] (isomer B)"
- Compound: "CCC(CON=C(C)c1ccc(C)c(C)n1)CON=C(C)c1ccc(C)c(C)n1 (stereo not shown)"
  Experimental endpoint: "logP"
  Reading: "3.89^[b]"

Attention now shifts to the item below.
Exam item: Given the compound `C/C(=N\OCC1(CO/N=C(\C)c2cccc(C)n2)CC(c2cccc(Cl)c2)=NO1)c1cccc(C)n1` , write its reported logP.
Marked response: 4.67^[b]

---

experiment: logP determination by HPLC on a reversed-phase column (C 18), EEC Directive 79/831 Annex V.A8; assay type: physicochemical; settings: value marked [b]
Experimental endpoint: logP

The cases that follow already have their logP on record.
- Molecule: "C=C(CON=C(C)c1cccc(C)n1)CON=C(C)c1cccc(CC)n1"
  logP: "4.67^[b]"
- Molecule: "CC(=NOCC(CON=C(C)c1cccc(C)n1)c1ccccc1)c1cccc(C)n1 (stereo not shown)"
  logP: "4.63^[b]"
- Molecule: "CC(=NOCCCCON=C(C)c1sc(C)nc1C)c1cccc(C)n1 (single isomer, unassigned)"
  logP: "3.56^[b] (isomer B)"

Attention now shifts to the item below.
Exam item: Given the molecule `CC(=NOCCCCON=C(C)c1ccc(Cl)s1)c1cccc(C)n1` , write its reported logP.
Marked response: 4.97^[b]

---

assay: logP determination by HPLC on a reversed-phase column (C 18), EEC Directive 79/831 Annex V.A8; type: physicochemical; details: method marker [a] (footnote not shown); isomer A / isomer B / isomer mixture as noted in the cell
Experimental endpoint: logP

The cases that follow already have their logP on record.
- Compound: "Cc1cccc(C(CC(C)C)=NOCCCON=C(CC(C)C)c2cccc(C)n2)n1 (single isomer, unassigned) [Compound 115]"
  Reading: "7.08^[a] (isomer B)"
- Compound: "CC(=NOCC(C)CON=C(C)c1ccc(C)c(C)n1)c1ccc(C)c(C)n1 (centres unmarked)"
  Reading: "2.99^[a]"
- Compound: "CC(=NOCC(C)CON=C(C)c1ccc(Cl)nc1)c1ccc(Cl)nc1 (centres unmarked)"
  Reading: "4.79^[a]"
- Compound: "CC(=NOCC(C)CON=C(C)c1cccc(C(C)C)n1)c1cccc(C(C)C)n1 (centres unmarked)"
  Reading: "7.36^[a]"

Attention now shifts to the item below.
Exam item: Given the compound CC(=NOCC(O)(CON=C(C)c1cccc(C)n1)CON=C(C)c1cccc(C)n1)c1cccc(C)n1 (centres unmarked) , write its reported logP.
Marked response: 2.65^[a)

---

logP values by entry
experiment: logP determination by HPLC on a reversed-phase column (C 18), EEC Directive 79/831 Annex V.A8; format: physicochemical; settings: value marked [b]

- Compound: "CC(=NOC[C@@H]1O[C@H]1CON=C(C)c1cccc(C)n1)c1cccc(C)n1"
  logP: "2.17^[b]"
- Compound: "C=C(CON=C(C)c1cccc(C)n1)CON=C(Cc1ccccc1)c1ncccc1C"
  logP: "4.82^[b]"

Exam item: Given the compound `CC(=NOCCCCCCON=C(C)c1cc(C)cc(C)n1)c1cccc(C)n1` , write its reported logP.
Marked response: 3.51^[b]

---

assay: logP determination by HPLC on a reversed-phase column (C 18), EEC Directive 79/831 Annex V.A8; assay type: physicochemical; details: method marker [b]; isomer A / isomer B / isomer mixture as noted in the cell
logP values by entry

The cases that follow already have their logP on record.
- Compound: "N/C(=N\\OCO/N=C(\\N)c1nc(C2CC2)cc(C2CC2)n1)c1nc(C2CC2)cc(C2CC2)n1 [compound 42]"
  logP: "2.92^[b]"
- Compound: "C=C(CON=C(C)c1cccc(C)n1)CON=C(N)c1nc(C)cs1 [compound 193]"
  logP: "2.70^b]"
- Compound: "CC(=NOCCCON=C(C)c1cc(C)ccn1)c1cc(C)ccn1 [compound 35]"
  logP: "1.94^[b]"
- Compound: "C=C(CON=C(C)c1cccc(C)n1)CON=C(C)c1cccs1 [compound 196]"
  logP: "4.23^[b]"
- Compound: "Cc1cc(C)nc(/C(N)=N/OCO/N=C(\\N)c2cc(C)cc(C)n2)c1 [compound 58]"
  logP: "1.87^[b]"
- Compound: "C=C(CON=C(C)c1cccc(C)n1)CON=C(N)c1nc(C)c(C(C)CC)c(C2CC2)n1 (centres unmarked) [Compound 244]"
  logP: "3.99^[b]"
- Compound: "C=C(CON=C(C)c1ccc(C)c(C)n1)CON=C(C)c1ccc(C)c(C)n1 [Compound 67]"
  logP: "2.82^[b]"

Attention now shifts to the item below.
Exam item: Given the compound C=C(CO/N=C(\N)c1ncc(F)cc1F)CO/N=C(\N)c1ncc(F)cc1F [compound 45] , write its reported logP.
Marked response: 2.42^[b]

---

assay: logP determination by HPLC on a reversed-phase column (C 18), EEC Directive 79/831 Annex V.A8; type: physicochemical; conditions: value marked [a]
logP values by entry

The cases that follow already have their logP on record.
- Molecule: "CC(=NOCC(C)(C)CON=C(C)c1ccc2c(n1)CCCC2)c1ccc2c(n1)CCCC2 [Compound 303]"
  logP: "5.49^[a]"
- Molecule: "CC[Si](C)(CON=C(C)c1cccc(C)n1)CON=C(C)c1cccc(C)n1 [Compound 785]"
  logP: "5.98^[a]"

Exam item: Given the molecule Cc1ccc(C(=NOCC(C)CON=C(c2ccc(C)c(C)n2)C(C)C)C(C)C)nc1C (mixture of isomers) [compound 299] , write its reported logP.
Marked response: 4.82^[a]

Exam item: Given the molecule CC(=NOCC(C)CON=C(C)c1cc(N2CCCC2)cc(C)n1)c1cc(N2CCCC2)cc(C)n1 (centres unmarked) [Compound 847] , write its reported logP.
Marked response: 1.40^[a]

Exam item: Given the molecule CC(=NOCC1(CON=C(C)c2ccc(C)c(C)n2)CC1)c1cccc(C)n1 [Compound 786] , write its reported logP.
Marked response: 3.99^[a]

---

test: logP determination by HPLC on a reversed-phase column (C 18), EEC Directive 79/831 Annex V.A8; type: physicochemical; settings: method marker [b]; isomer A / isomer B / isomer mixture as noted in the cell
logP values by entry

- Molecule: "C=C(CON=C(C)c1cccc(C)n1)CON=C(N)c1ncc(Cl)cc1Cl [compound 246]"
  logP: "3.00^[b]"
- Molecule: "Cc1nc(C(N)=NOCC(C)CON=C(N)c2csc(C)n2)cs1 (centres unmarked) [compound 83]"
  logP: "3.54^[b]"
- Molecule: "C=C(CON=C(C)c1cccc(C)n1)CON=C(C)c1ncccc1C (single isomer, unassigned) [Compound 203]"
  logP: "3.03^[b] (isomer A)"
- Molecule: "C=C(CON=C(C)c1cccc(C)n1)CON=C(C)c1ncccc1Cl (single isomer, unassigned) [compound 139]"
  logP: "3.39^[b] (isomer B)"
- Molecule: "C=C(CON=C(C)c1cccc(C(F)(F)F)n1)CON=C(C)c1cccc(C(F)(F)F)n1 [compound 176]"
  logP: "6.02^[b]"

Exam item: Given the molecule Cc1nc(/C(N)=N/OCO/N=C(\N)c2nc(C)c3c(n2)CCCC3)nc2c1CCCC2 [compound 39] , write its reported logP.
Marked response: 2.29^[b]

Exam item: Given the molecule C=C(CON=C(C)c1cccc(C)n1)CON=C(N)c1nc(C2CC2)cc(C2CC2)n1 [Compound 243] , write its reported logP.
Marked response: 3.09^[b]

Exam item: Given the molecule CC(=NOCC(CON=C(C)c1cccc(C)n1)=NO)c1cccc(C)n1 [compound 82] , write its reported logP.
Marked response: 1.91^[b]

---

Assay: logP determination by HPLC on a reversed-phase column (C 18), EEC Directive 79/831 Annex V.A8
Format: physicochemical
Conditions: method marked [b] in Table 1
Description: The stated logP values were determined in accordance with EEC Directive 79/831 Annex V.A8 by HPLC (high performance liquid chromatography) on a reversed-phase column (C 18). Temperature: 43° C.
Experimental endpoint: logP

- Molecule: "CC(=NOCc1ccccc1CON=C(C)c1ccccn1)c1ccccn1 [Compound 725]"
  Experimental endpoint: "logP"
  Reading: "3.76^[b]"
- Molecule: "Cc1cccc(C=NOCC(C)CON=Cc2cccc(C)n2)n1 (stereo not shown) [compound 668]"
  Experimental endpoint: "logP"
  Reading: "2.28^[b]"
- Molecule: "CCC1=NOC(CON=C(C)c2ccc(C)c(C)n2)(CON=C(C)c2ccc(C)c(C)n2)C1 (stereo not shown) [compound 628]"
  Experimental endpoint: "logP"
  Reading: "2.51^[b]"

Exam item: Given the molecule Cc1nc(/C(N)=N/OCc2cccc(CO/N=C(\N)c3nc(C)c(Cl)c(C)n3)c2)nc(C)c1Cl [compound 715] , write its reported logP.
Marked response: 3.29^[b]
